Below, each entry is listed alongside its reported IC50.
biological target: ERK5 (Homo sapiens, UniProt Q13164); test: ERK5 kinase activity in vitro assay (32P-ATP, PIMtide substrate); details: in vitro assay, recombinant active ERK5; read-out: Enzymatic IC50 (ERK5)
Sequence (Q13164 whole entry): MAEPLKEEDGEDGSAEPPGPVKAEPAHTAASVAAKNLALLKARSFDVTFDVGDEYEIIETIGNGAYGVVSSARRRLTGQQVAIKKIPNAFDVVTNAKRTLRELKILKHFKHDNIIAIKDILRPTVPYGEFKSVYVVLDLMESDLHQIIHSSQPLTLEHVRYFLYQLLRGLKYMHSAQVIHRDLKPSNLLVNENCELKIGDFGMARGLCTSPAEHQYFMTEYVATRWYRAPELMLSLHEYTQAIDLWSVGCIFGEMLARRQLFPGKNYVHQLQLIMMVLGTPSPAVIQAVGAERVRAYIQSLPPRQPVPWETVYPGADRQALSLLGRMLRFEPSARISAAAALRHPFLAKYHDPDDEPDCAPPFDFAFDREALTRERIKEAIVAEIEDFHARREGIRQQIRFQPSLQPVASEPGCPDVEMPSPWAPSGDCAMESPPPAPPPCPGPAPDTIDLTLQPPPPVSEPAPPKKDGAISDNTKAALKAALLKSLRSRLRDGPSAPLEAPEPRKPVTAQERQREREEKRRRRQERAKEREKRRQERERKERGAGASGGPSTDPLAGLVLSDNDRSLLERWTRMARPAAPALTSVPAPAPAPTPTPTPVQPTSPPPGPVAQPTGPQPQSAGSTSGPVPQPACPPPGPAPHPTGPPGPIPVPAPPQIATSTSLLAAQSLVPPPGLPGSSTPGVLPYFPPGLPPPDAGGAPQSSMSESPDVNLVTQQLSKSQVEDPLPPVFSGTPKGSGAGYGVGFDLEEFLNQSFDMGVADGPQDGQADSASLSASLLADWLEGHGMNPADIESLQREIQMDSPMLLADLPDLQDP

Example entries begin here.
INPUT: So what's the measured IC50 for this one? COc1cc(C(=O)NC2CCN(C)CC2)ccc1Nc1ncc2c(n1)N(C)c1ccccc1C(=O)N2C
OUTPUT: 0.338 µM

INPUT: So what's the measured IC50 for this one? CN1CCC(Nc2ncc3c(n2)N(C)c2ccccc2C(=O)N3C)CC1
OUTPUT: 1.25 µM

INPUT: So what's the measured IC50 for this one? COc1cc(N2CCN(C)CC2)ccc1Nc1ncc2c(n1)N(C(C)C)c1ccccc1C(=O)N2C
OUTPUT: 0.098 µM

Continuing:
INPUT: So what's the measured IC50 for this one? CN1C(=O)c2ccccc2N(C)c2nc(NCCc3cnc[nH]3)ncc21
OUTPUT: 1.72 µM

INPUT: So what's the measured IC50 for this one? COc1cc(N2CCC(O)CC2)ccc1Nc1ncc2c(n1)N(C)c1ccccc1C(=O)N2C
OUTPUT: 0.297 µM

Where these numbers come from: paper PMC3914206
